Tested on: Isocitrate dehydrogenase [NADP] cytoplasmic (Homo sapiens), O75874 [R132H]
Sequence (O75874 whole entry R132H): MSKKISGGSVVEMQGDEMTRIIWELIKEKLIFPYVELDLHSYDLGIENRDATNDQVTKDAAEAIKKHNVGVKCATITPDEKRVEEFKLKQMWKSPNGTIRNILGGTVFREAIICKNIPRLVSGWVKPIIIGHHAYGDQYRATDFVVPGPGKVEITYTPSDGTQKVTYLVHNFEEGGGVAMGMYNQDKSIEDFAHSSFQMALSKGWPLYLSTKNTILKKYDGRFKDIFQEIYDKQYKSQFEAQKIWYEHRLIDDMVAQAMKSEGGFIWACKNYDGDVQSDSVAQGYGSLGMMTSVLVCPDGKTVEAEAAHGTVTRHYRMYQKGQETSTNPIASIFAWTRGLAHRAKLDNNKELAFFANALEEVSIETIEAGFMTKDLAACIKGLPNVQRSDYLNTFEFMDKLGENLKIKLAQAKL
method-description: Inhibition of recombinant human IDH1 R132H mutant extracted from Escherichia coli BL21 (DE3) cells using alpha-ketoglutarate as substrate at 0.2 uM incubated for 60 mins in presence of NADPH by absorbance based assay relative to control
readout: inhibition

{"columns": ["entry-smiles", "inhibition"],
 "data": [
  ["COc1cc(O)c(-c2cc(-c3ccc(O)cc3)nc(-c3ccccn3)n2)cc1CC=C(C)C", "33.1%"]
]}

input: Tell me measured inhibition for COc1cc(O)c(-c2cc(-c3ccc(O)cc3)ncn2)cc1CC=C(C)C please.
output: 13.4%

input: Fill in reported inhibition for this entry: COc1cc(O)c(-c2cc(-c3ccc(O)cc3)nc(N3CCCC3)n2)cc1CC=C(C)C
output: 5%

---

Test system: Isocitrate dehydrogenase [NADP] cytoplasmic (Homo sapiens), O75874 [R132C]
Sequence (O75874 whole entry R132C): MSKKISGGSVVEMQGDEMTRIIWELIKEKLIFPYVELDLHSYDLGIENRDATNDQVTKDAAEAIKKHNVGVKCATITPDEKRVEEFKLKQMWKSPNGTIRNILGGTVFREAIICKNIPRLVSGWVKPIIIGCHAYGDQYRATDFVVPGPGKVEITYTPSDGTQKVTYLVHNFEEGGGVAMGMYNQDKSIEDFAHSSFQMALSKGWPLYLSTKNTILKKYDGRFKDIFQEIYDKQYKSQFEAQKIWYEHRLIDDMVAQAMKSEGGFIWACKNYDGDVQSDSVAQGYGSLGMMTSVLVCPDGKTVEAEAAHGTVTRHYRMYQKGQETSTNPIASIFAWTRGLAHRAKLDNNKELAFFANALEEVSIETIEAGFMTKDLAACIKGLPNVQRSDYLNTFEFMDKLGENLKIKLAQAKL
method-description: Inhibition of recombinant human IDH1 R132C mutant extracted from Escherichia coli BL21 (DE3) cells using alpha-ketoglutarate as substrate at 2 uM incubated for 60 mins in presence of NADPH by absorbance based assay relative to control
inhibition reference

{"columns": ["entry-smiles", "readout", "observed-measurement"],
 "data": [
  ["COC(=O)N1CCN(c2nc(-c3ccc(O)cc3)cc(-c3cc(CC=C(C)C)c(OC)cc3O)n2)CC1", "inhibition", "80.1%"],
  ["COc1cc(O)c(-c2cc(-c3ccc(O)cc3)nc(N3CCN(C(C)=O)CC3)n2)cc1CC=C(C)C", "inhibition", "69.4%"],
  ["COc1cc(O)c(-c2cc(-c3ccc(O)cc3)nc(N3CCNCC3)n2)cc1CC=C(C)C", "inhibition", "> 100%"],
  ["COc1ccc(-c2cc(-c3cc(CC=C(C)C)c(OC)cc3OC)nc(-c3ncccn3)n2)cc1", "inhibition", "92.4%"],
  ["COc1ccc(-c2cc(-c3ccc(O)cc3)nc(-c3ncccn3)n2)c(O)c1", "inhibition", "97.5%"]
]}

input: State its inhibition: COc1cc(O)c(-c2cc(-c3ccc(O)cc3)nc(N3CCCC3)n2)cc1CC=C(C)C
output: 84.3%

input: Please look at this compound and report its inhibition: COc1cc(O)c(-c2cc(-c3ccc(O)cc3)nc(-c3cccnc3)n2)cc1CC=C(C)C
output: 57.9%

input: Complete the entry with inhibition for COc1cc(OC)c(-c2cc(-c3ccc(O)cc3)nc(-c3ncccn3)n2)cc1CC=C(C)C
output: 81.2%

---

method-description: AUC (0 to t) in Sprague-Dawley rat at 5 mg/kg, po measured after 24 hrs by LC-MS/MS analysis
Type: ADME, organism-based
conditions-used: in vivo
readout: AUC(0-t) at 24 h (ng·h/mL)
Respond with the bare value in ng·h/mL.

input: Query AUC(0-t) at 24 h for COc1cc(O)c(-c2cc(-c3ccc(O)cc3)nc(N3CCNCC3)n2)cc1CC=C(C)C
output: 370

---

Listing of recorded inhibition by entry.
System: Isocitrate dehydrogenase [NADP] cytoplasmic (Homo sapiens), O75874 [R132C]
method-description: Inhibition of recombinant human IDH1 R132C mutant extracted from Escherichia coli BL21 (DE3) cells using alpha-ketoglutarate as substrate at 0.2 uM incubated for 60 mins in presence of NADPH by absorbance based assay relative to control

input: State its inhibition: CCCCc1nc(-c2ccc(O)cc2)cc(-c2cc(CC=C(C)C)c(OC)cc2O)n1
output: 10.3%

input: Specify measured inhibition for COC(=O)N1CCN(c2nc(-c3ccc(O)cc3)cc(-c3cc(CC=C(C)C)c(OC)cc3O)n2)CC1 .
output: 24.6%

input: Input COc1ccc(-c2cc(-c3cc(CC=C(C)C)c(OC)cc3OC)nc(-c3ncccn3)n2)cc1 , output reported inhibition.
output: 24.7%

input: Dear colleague, please send me the reported inhibition for COc1cc(O)c(-c2cc(-c3ccc(O)cc3)ncn2)cc1CC=C(C)C when you can.
output: 17.8%

input: Using the record for COc1cc(O)c(-c2cc(-c3ccc(O)cc3)nc(-c3cnccn3)n2)cc1CC=C(C)C , state its measured inhibition.
output: 24.5%

---

Test system: Isocitrate dehydrogenase [NADP] cytoplasmic (Homo sapiens), O75874 [R132H]
method-description: Inhibition of recombinant human IDH1 R132H mutant extracted from Escherichia coli BL21 (DE3) cells using alpha-ketoglutarate as substrate at 0.2 uM incubated for 60 mins in presence of NADPH by absorbance based assay relative to control
The source made the active and inactive calls. The rule behind the calls is not given here.
readout: inhibition

Worked cases, answers included:
{"columns": ["entry-smiles", "inhibition"],
 "data": [
  ["COc1cc(O)c(-c2cc(-c3ccc(O)cc3)nc(N3CCN(C(C)=O)CC3)n2)cc1CC=C(C)C", "34.7%"],
  ["COc1cc(OC)c(C(=O)/C=C/c2ccc(O)cc2)cc1CC=C(C)C", "inactive"],
  ["COc1cc(O)c(-c2cc(-c3ccc(O)cc3)nc(-c3ccncc3)n2)cc1CC=C(C)C", "9.7%"],
  ["COc1cc(O)c(-c2cc(-c3ccc(O)cc3)nc(N3CCN(c4ncccn4)CC3)n2)cc1CC=C(C)C", "inactive"],
  ["COC(=O)N1CCN(c2nc(-c3ccc(O)cc3)cc(-c3cc(CC=C(C)C)c(OC)cc3O)n2)CC1", "21.1%"],
  ["COc1cc(O)c(-c2cc(-c3ccc(O)cc3)nc(C(C)(C)C)n2)cc1CC=C(C)C", "13.5%"],
  ["COc1cc(OC)c(-c2cc(-c3ccc(O)cc3)nc(-c3ncccn3)n2)cc1CC=C(C)C", "33.4%"],
  ["COc1cc(O)c(-c2cc(-c3ccc(O)cc3)nc(C)n2)cc1CC=C(C)C", "13.6%"]
]}

Please examine the following record next.
input: Fetch value of inhibition on Isocitrate dehydrogenase [NADP] cytoplasmic (Homo sapiens), O75874 [R132H] for COc1ccc(-c2cc(-c3cc(CC=C(C)C)c(OC)cc3OC)nc(-c3ncccn3)n2)cc1 .
output: 12.1%

---

Catalogue of inhibition readings, one per entry.
System: Isocitrate dehydrogenase [NADP] cytoplasmic (Homo sapiens), O75874 [R132H]
method-description: Inhibition of recombinant human IDH1 R132H mutant extracted from Escherichia coli BL21 (DE3) cells using alpha-ketoglutarate as substrate at 0.2 uM incubated for 60 mins in presence of NADPH by absorbance based assay relative to control

{"columns": ["compound", "inhibition"],
 "data": [
  ["COc1cc(O)c(-c2cc(-c3ccc(O)cc3)nc(C3CCCO3)n2)cc1CC=C(C)C (stereo not drawn)", "14.7%"]
]}

input: Please look at this compound and report its inhibition: COc1cc(O)c(C(=O)/C=C/c2ccc(O)cc2)cc1CC=C(C)C
output: 14.9%

---

system: Isocitrate dehydrogenase [NADP] cytoplasmic (Homo sapiens, UniProt O75874, R132H)
Sequence (O75874 2-414 R132H limits assumed): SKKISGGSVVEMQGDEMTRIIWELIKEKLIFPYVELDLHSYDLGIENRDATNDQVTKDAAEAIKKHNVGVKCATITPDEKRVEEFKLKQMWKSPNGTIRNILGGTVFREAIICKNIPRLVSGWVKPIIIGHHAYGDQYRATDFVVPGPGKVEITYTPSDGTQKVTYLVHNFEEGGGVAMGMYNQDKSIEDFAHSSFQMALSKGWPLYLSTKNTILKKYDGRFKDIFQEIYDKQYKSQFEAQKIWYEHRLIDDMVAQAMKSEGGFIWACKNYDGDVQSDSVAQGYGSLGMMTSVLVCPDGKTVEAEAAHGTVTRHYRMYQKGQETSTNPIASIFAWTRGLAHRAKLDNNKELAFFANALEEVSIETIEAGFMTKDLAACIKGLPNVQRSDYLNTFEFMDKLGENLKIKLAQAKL
method-description: Inhibition of recombinant human IDH1 R132H mutant extracted from Escherichia coli BL21 (DE3) cells using alpha-ketoglutarate as substrate incubated for 60 mins in presence of NADPH by absorbance based assay
readout: IC50 (nM)
Number in nM, nothing else.

{"columns": ["entry-smiles", "system", "observed-measurement"],
 "data": [
  ["COc1cc(O)c(-c2cc(-c3ccc(O)cc3)nc(N3CCNCC3)n2)cc1CC=C(C)C", "Isocitrate dehydrogenase [NADP] cytoplasmic (Homo sapiens, UniProt O75874, R132H)", 124]
]}

input: For the molecule COc1ccc(-c2cc(-c3ccc(O)cc3)nc(-c3ncccn3)n2)c(O)c1 , give its measured IC50 value.
output: 90.2

---

Entries annotated with measured pEC50
system: Isocitrate dehydrogenase [NADP] cytoplasmic (Homo sapiens, UniProt O75874, R132C)
method-description: Inhibition of IDH1 R132C mutant in human HT-1080 cells assessed as reduction in 2-HG level incubated for 48 hrs in presence of NAD+ by resazurin fluorescence dye based Sigma MAK320-1 assay kit analysis
When answering, recall that pEC50 equals minus log10 of the concentration in mol/L, and write that number alone.

{"columns": ["entry-smiles", "pEC50"],
 "data": [
  ["COc1ccc(-c2cc(-c3ccc(O)cc3)nc(-c3ncccn3)n2)c(O)c1", 6.55]
]}

Now take the following compound into account.
input: Give the reported pEC50 for this compound. COc1cc(O)c(-c2cc(-c3ccc(O)cc3)nc(N3CCNCC3)n2)cc1CC=C(C)C
output: 7.08

---

method-description: Clearance in Sprague-Dawley rat at 0.5 mg/kg, iv measured after 24 hrs by LC-MS/MS analysis
Type: ADME, organism-based
conditions-used: in vivo
readout: clearance (mL/min/kg)
// units = mL/min/kg; emit number, no label

input: Quickly give me recorded clearance for COc1cc(O)c(-c2cc(-c3ccc(O)cc3)nc(N3CCNCC3)n2)cc1CC=C(C)C
output: 27.3

---

Test system: Isocitrate dehydrogenase [NADP] cytoplasmic (Homo sapiens), O75874 [R132H]
method-description: Inhibition of recombinant human IDH1 R132H mutant extracted from Escherichia coli BL21 (DE3) cells using alpha-ketoglutarate as substrate at 2 uM incubated for 60 mins in presence of NADPH by absorbance based assay relative to control
The source made the active and inactive calls. No cut-off for these calls is given here.
readout: inhibition

{"columns": ["compound", "inhibition"],
 "data": [
  ["COc1cc(O)c(C(=O)/C=C/c2ccc(O)cc2)cc1CC=C(C)C", "54%"],
  ["COc1cc(OC)c(C(=O)/C=C/c2ccc(O)cc2)cc1CC=C(C)C", "inactive"],
  ["COc1cc(O)c(-c2cc(-c3ccc(O)cc3)nc(N3CCOCC3)n2)cc1CC=C(C)C", "82.1%"],
  ["COc1cc(O)c(-c2cc(-c3ccc(O)cc3)nc(-c3ccncc3Cl)n2)cc1CC=C(C)C", "95.1%"],
  ["COCOc1ccc(/C=C/C(=O)c2cc(CC=C(C)C)c(OC)cc2O)cc1", "inactive"]
]}

input: Give inhibition for COc1cc(O)c(-c2cc(-c3ccc(O)cc3)nc(-c3ccccc3)n2)cc1CC=C(C)C tested on Isocitrate dehydrogenase [NADP] cytoplasmic (Homo sapiens), O75874 [R132H].
output: 88.5%

input: Provide inhibition, system Isocitrate dehydrogenase [NADP] cytoplasmic (Homo sapiens), O75874 [R132H], entry COc1cc(OC)c(-c2cc(-c3ccc(O)cc3)nc(-c3ncccn3)n2)cc1CC=C(C)C
output: 91.2%

input: Print Isocitrate dehydrogenase [NADP] cytoplasmic (Homo sapiens), O75874 [R132H] inhibition for COc1cc(O)c(-c2cc(-c3ccc(O)cc3)nc(C3CCCO3)n2)cc1CC=C(C)C (stereo not given) .
output: 60.1%

input: Lab note: Isocitrate dehydrogenase [NADP] cytoplasmic (Homo sapiens), O75874 [R132H] assay, enter inhibition for COC(=O)N1CCN(c2nc(-c3ccc(O)cc3)cc(-c3cc(CC=C(C)C)c(OC)cc3O)n2)CC1 here
output: 75.4%

input: Report measured inhibition on Isocitrate dehydrogenase [NADP] cytoplasmic (Homo sapiens), O75874 [R132H]; entry: COc1cc(O)c(-c2cc(-c3ccc(O)cc3)nc(N3CCN(c4ncccn4)CC3)n2)cc1CC=C(C)C
output: 37.4%

Each recorded value in this set is attributed to ChEMBL document CHEMBL5608173.
